Molecular target: human prostanoid IP receptor (Homo sapiens)
Construct: expressed in transfected cells
Sequence (P43119 whole entry): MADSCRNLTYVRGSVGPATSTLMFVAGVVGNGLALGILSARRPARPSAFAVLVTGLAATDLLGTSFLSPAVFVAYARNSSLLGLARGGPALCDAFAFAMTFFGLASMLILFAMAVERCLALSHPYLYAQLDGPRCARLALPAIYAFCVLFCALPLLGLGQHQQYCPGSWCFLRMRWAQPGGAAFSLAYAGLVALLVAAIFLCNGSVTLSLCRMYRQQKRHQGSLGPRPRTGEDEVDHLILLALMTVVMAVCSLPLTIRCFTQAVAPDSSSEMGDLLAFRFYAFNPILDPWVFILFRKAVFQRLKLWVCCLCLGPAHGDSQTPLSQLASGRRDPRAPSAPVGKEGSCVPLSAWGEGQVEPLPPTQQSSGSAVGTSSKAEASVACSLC
Experiment: FLIPR Ca2+ signaling antagonist assay, IP receptor stable cell line
Type: cell-based
Settings: human recombinant IP in HEK-293 EBNA cells; standard agonist Cicaprost; NA = no antagonism or Kb>=10,000 nM
Structures can show the parent of a compound that is named as a salt.
property_name: Kb

# compound, recorded_measurement
rows = [
    ("Cc1nn(Cc2cc(Br)cc3cnn(CC(C)C)c23)c2ncc(C(=O)O)cc12 [Compound 54, HCl salt]", "9.5 µM"),
    ("CCC(CC)Cn1ncc2cc(Br)cc(Cn3ncc4cc(C(=O)O)ccc43)c21", "1 µM"),
    ("CC(C)Cn1ncc2cc(Br)cc(Cn3ncc4cc(C(=O)O)ccc43)c21", "> 10 µM"),
    ("CC(C)n1ncc2cc(Br)cc(Cn3ncc4cc(C(=O)O)ccc43)c21", "> 10 µM"),
    ("Cc1nn(Cc2cc(Br)cc3cnn(CC(C)C)c23)c2ccc(C(=O)O)cc12", "> 10 µM"),
    ("CC(C)Cn1ncc2cc(Cl)cc(Cc3ncc4cc(C(=O)O)ccn34)c21", "> 10 µM"),
    ("CC(C)Cn1ncc2cc(OC(F)(F)F)cc(Cn3cnc4cc(C(=O)O)ccc43)c21", "9 µM"),
    ("CC(C)Cn1ncc2cc(C(F)(F)F)cc(Cn3cnc4cc(C(=O)O)ccc43)c21", "8.9 µM"),
]

Cited source: patent US9657018B2
